Kindly supply the reported herbicidal efficacy (growth inhibition rate level) Digitaria ciliaris values for the records listed here.
Tested on: Digitaria ciliaris
assay_remarks: Farming soil treatment test
Assay type: in vivo
test_parameters: 5g a.i./10a; soil surface spray prior to weed growth; 30 days

In [3]: df
Out[3]:
                                   molecule               measurement
0  CCN(C(=O)C(F)(F)F)c1c(C#N)cnn1-c1nn2c(c1Cl)CCCC2 [Control agent 4.238]  5 (50% to less than 60%)
1  N#Cc1cnn(-c2nn3c(c2Cl)CCCC3)c1NC(=O)C(F)(F)F [Control agent 4.185]  3 (30% to less than 40%)
2  N#Cc1cnn(-c2nn3c(c2Br)CCCC3)c1N(CCCl)C(=O)C(F)(F)F [Compound 16]                 10 (100%)

For every listed record, write down its herbicidal efficacy (growth inhibition rate level) Digitaria ciliaris.
1. COCCN(C(=O)C(F)(F)F)c1c([N+](=O)[O-])cnn1-c1nn2c(c1Cl)CCCC2 [Compound 20]
2. CN(C(=O)C(F)(F)F)c1c(C#N)cnn1-c1nn2c(c1Cl)CCCC2 [Control agent 4.237]
3. N#Cc1cnn(-c2nn3c(c2Cl)CCCC3)c1NCCCl [Control agent 4.92]

1: 10 (100%); 2: 4 (40% to less than 50%); 3: 2 (20% to less than 30%)
